protocol.details: AUC (0 to 6 hrs) in rat at 10 mg/kg, po
Format: ADME, organism-based
Design: time < 6 hr, dose 10 mg/kg, route oral
condition.label: plasma
measure: AUC(0-t) at 6 h (µM·h)

                            chemical_string  recorded_result
0  COc1cc(C)c2nc3[nH]nc(C)c3c(N3CCCOCC3)c2c1               11
1  COc1cc(C)c2nc3[nH]nc(C)c3c(OC3CCOCC3)c2c1             10.6
2  COc1cc(C)c2nc3[nH]nc(C)c3c(N3CCNCC3)c2c1              3.3
3  COc1cc(C)c2nc3[nH]nc(C)c3c(NC3CCOCC3)c2c1             11.8
